The values you see were collected from patent US20260137790A1.

conditions: human, in vivo, sc, 0.3 mg, M1 Cmax, max
Starred links: 1 amine or outer side, 2 acyl side, 3 side chain; linkers in the order of their positions; H or OH if unused. Positions of bridges follow the written chain, without caps; N, C: chain ends. Non-standard residues stand in square brackets, D forms with d. Residues, ends and D or L forms follow the SMILES beside them. Groups on a side chain read outwards from the residue. *: point of attachment. X1 = CC(=O)NCCCC[C@H](NC(=O)CC[C@H](N)C(N)=O)C(=O)*; εLys = N[C@@H](CCCCN[*:1])C(=O)[*:2]; Dab = NCC[C@H](N)C(=O)O
Experimental readout: Cmax (ng/mL)
Output spec: scalar in ng/mL, unitless text.

Consider the compound CC[C@H](C)[C@@H]1NC(=O)[C@H](Cc2ccccc2)NC(=O)[C@@H](N)CSSC[C@@H](C(=O)N2CCC[C@H]2C(=O)N[C@@H](CCNC(=O)[C@@H](N)CCCCNC(=O)[C@H](CCCCNC(C)=O)NC(=O)CC[C@H](N)C(N)=O)C(=O)NCC(N)=O)NC(=O)[C@H](CC(N)=O)NC(=O)[C@H](CCC(N)=O)NC1=O [Compound M1] (H-CFIQNCP[Dab]([εLys-X1])G-NH2; disulfide 1-6) and give its measured Cmax.
2.93

* * *

details: human, in vivo, sc, 0.1 mg, M1 t1/2, harmonic mean
Starred links: 1 amine or outer side, 2 acyl side, 3 side chain; linkers in the order of their positions; H or OH if unused. Positions of bridges follow the written chain, without caps; N, C: chain ends. Non-standard residues stand in square brackets, D forms with d. Residues, ends and D or L forms follow the SMILES beside them. Groups on a side chain read outwards from the residue. *: point of attachment. X1 = CC(=O)NCCCC[C@H](NC(=O)CC[C@H](N)C(N)=O)C(=O)*; εLys = N[C@@H](CCCCN[*:1])C(=O)[*:2]; Dab = NCC[C@H](N)C(=O)O
Experimental readout: half-life
In your response, put the unit directly after the numeric value.

Consider the compound CC[C@H](C)[C@@H]1NC(=O)[C@H](Cc2ccccc2)NC(=O)[C@@H](N)CSSC[C@@H](C(=O)N2CCC[C@H]2C(=O)N[C@@H](CCNC(=O)[C@@H](N)CCCCNC(=O)[C@H](CCCCNC(C)=O)NC(=O)CC[C@H](N)C(N)=O)C(=O)NCC(N)=O)NC(=O)[C@H](CC(N)=O)NC(=O)[C@H](CCC(N)=O)NC1=O [Compound M1] (H-CFIQNCP[Dab]([εLys-X1])G-NH2; disulfide 1-6) and give its measured half-life.
1.5 h

* * *

settings: human, in vivo, sc, 0.3 mg, M1 t1/2, min
Starred links: 1 amine or outer side, 2 acyl side, 3 side chain; linkers in the order of their positions; H or OH if unused. Positions of bridges follow the written chain, without caps; N, C: chain ends. Non-standard residues stand in square brackets, D forms with d. Residues, ends and D or L forms follow the SMILES beside them. Groups on a side chain read outwards from the residue. *: point of attachment. X1 = CC(=O)NCCCC[C@H](NC(=O)CC[C@H](N)C(N)=O)C(=O)*; εLys = N[C@@H](CCCCN[*:1])C(=O)[*:2]; Dab = NCC[C@H](N)C(=O)O
Experimental readout: half-life

Consider the compound CC[C@H](C)[C@@H]1NC(=O)[C@H](Cc2ccccc2)NC(=O)[C@@H](N)CSSC[C@@H](C(=O)N2CCC[C@H]2C(=O)N[C@@H](CCNC(=O)[C@@H](N)CCCCNC(=O)[C@H](CCCCNC(C)=O)NC(=O)CC[C@H](N)C(N)=O)C(=O)NCC(N)=O)NC(=O)[C@H](CC(N)=O)NC(=O)[C@H](CCC(N)=O)NC1=O [Compound M1] (H-CFIQNCP[Dab]([εLys-X1])G-NH2; disulfide 1-6) and give its measured half-life.
1.5 h

* * *

conditions: human, in vivo, iv, M1 harmonic mean terminal half-life
Starred links: 1 amine or outer side, 2 acyl side, 3 side chain; linkers in the order of their positions; H or OH if unused. Positions of bridges follow the written chain, without caps; N, C: chain ends. Non-standard residues stand in square brackets, D forms with d. Residues, ends and D or L forms follow the SMILES beside them. Groups on a side chain read outwards from the residue. *: point of attachment. X1 = CC(=O)NCCCC[C@H](NC(=O)CC[C@H](N)C(N)=O)C(=O)*; εLys = N[C@@H](CCCCN[*:1])C(=O)[*:2]; Dab = NCC[C@H](N)C(=O)O
Experimental readout: half-life

Consider the compound CC[C@H](C)[C@@H]1NC(=O)[C@H](Cc2ccccc2)NC(=O)[C@@H](N)CSSC[C@@H](C(=O)N2CCC[C@H]2C(=O)N[C@@H](CCNC(=O)[C@@H](N)CCCCNC(=O)[C@H](CCCCNC(C)=O)NC(=O)CC[C@H](N)C(N)=O)C(=O)NCC(N)=O)NC(=O)[C@H](CC(N)=O)NC(=O)[C@H](CCC(N)=O)NC1=O [Compound M1] (H-CFIQNCP[Dab]([εLys-X1])G-NH2; disulfide 1-6) and give its measured half-life.
~4 h

* * *

conditions: human, in vivo, sc, 0.3 mg, M1 AUC, min
Starred links: 1 amine or outer side, 2 acyl side, 3 side chain; linkers in the order of their positions; H or OH if unused. Positions of bridges follow the written chain, without caps; N, C: chain ends. Non-standard residues stand in square brackets, D forms with d. Residues, ends and D or L forms follow the SMILES beside them. Groups on a side chain read outwards from the residue. *: point of attachment. X1 = CC(=O)NCCCC[C@H](NC(=O)CC[C@H](N)C(N)=O)C(=O)*; εLys = N[C@@H](CCCCN[*:1])C(=O)[*:2]; Dab = NCC[C@H](N)C(=O)O
Experimental readout: AUC (ng·h/mL)
Output spec: scalar in ng·h/mL, unitless text.

Consider the compound CC[C@H](C)[C@@H]1NC(=O)[C@H](Cc2ccccc2)NC(=O)[C@@H](N)CSSC[C@@H](C(=O)N2CCC[C@H]2C(=O)N[C@@H](CCNC(=O)[C@@H](N)CCCCNC(=O)[C@H](CCCCNC(C)=O)NC(=O)CC[C@H](N)C(N)=O)C(=O)NCC(N)=O)NC(=O)[C@H](CC(N)=O)NC(=O)[C@H](CCC(N)=O)NC1=O [Compound M1] (H-CFIQNCP[Dab]([εLys-X1])G-NH2; disulfide 1-6) and give its measured AUC.
3.2

* * *

settings: human, in vivo, sc, 0.3 mg, M1 tmax, max
Starred links: 1 amine or outer side, 2 acyl side, 3 side chain; linkers in the order of their positions; H or OH if unused. Positions of bridges follow the written chain, without caps; N, C: chain ends. Non-standard residues stand in square brackets, D forms with d. Residues, ends and D or L forms follow the SMILES beside them. Groups on a side chain read outwards from the residue. *: point of attachment. X1 = CC(=O)NCCCC[C@H](NC(=O)CC[C@H](N)C(N)=O)C(=O)*; εLys = N[C@@H](CCCCN[*:1])C(=O)[*:2]; Dab = NCC[C@H](N)C(=O)O
Experimental readout: Tmax (h)
Output spec: scalar in h, unitless text.

Consider the compound CC[C@H](C)[C@@H]1NC(=O)[C@H](Cc2ccccc2)NC(=O)[C@@H](N)CSSC[C@@H](C(=O)N2CCC[C@H]2C(=O)N[C@@H](CCNC(=O)[C@@H](N)CCCCNC(=O)[C@H](CCCCNC(C)=O)NC(=O)CC[C@H](N)C(N)=O)C(=O)NCC(N)=O)NC(=O)[C@H](CC(N)=O)NC(=O)[C@H](CCC(N)=O)NC1=O [Compound M1] (H-CFIQNCP[Dab]([εLys-X1])G-NH2; disulfide 1-6) and give its measured Tmax.
1.1

* * *

conditions: human, in vivo, sc, 0.3 mg, M1 tmax, median
Starred links: 1 amine or outer side, 2 acyl side, 3 side chain; linkers in the order of their positions; H or OH if unused. Positions of bridges follow the written chain, without caps; N, C: chain ends. Non-standard residues stand in square brackets, D forms with d. Residues, ends and D or L forms follow the SMILES beside them. Groups on a side chain read outwards from the residue. *: point of attachment. X1 = CC(=O)NCCCC[C@H](NC(=O)CC[C@H](N)C(N)=O)C(=O)*; εLys = N[C@@H](CCCCN[*:1])C(=O)[*:2]; Dab = NCC[C@H](N)C(=O)O
Experimental readout: Tmax (h)
Output spec: scalar in h, unitless text.

Consider the compound CC[C@H](C)[C@@H]1NC(=O)[C@H](Cc2ccccc2)NC(=O)[C@@H](N)CSSC[C@@H](C(=O)N2CCC[C@H]2C(=O)N[C@@H](CCNC(=O)[C@@H](N)CCCCNC(=O)[C@H](CCCCNC(C)=O)NC(=O)CC[C@H](N)C(N)=O)C(=O)NCC(N)=O)NC(=O)[C@H](CC(N)=O)NC(=O)[C@H](CCC(N)=O)NC1=O [Compound M1] (H-CFIQNCP[Dab]([εLys-X1])G-NH2; disulfide 1-6) and give its measured Tmax.
1
